Origin of values: PubChem BioAssay AID652039

Would you mind telling me the reported activation of each entry?
- Tested on: Kallikrein-7 (Homo sapiens)
- Measurement notes: activation of human kallikrein-7 proenzyme – biochemical, fluorescence intensity, primary screen (AID 652039)
- Measurement setup: purified proKLK7, EDANS-DABCYL substrate fluorescence; at 7 µM; hits give high values; 100% is mature enzyme control, 0% vehicle
About 3,300 (0.89%) of roughly 370,000 compounds were called active. The sample as a whole holds a higher share of actives than the screen did.

C/C(N)=C(/C#N)C(=O)COC(=O)c1cc(-c2cccc(Br)c2)nc2ccccc12: 0.31% (inactive)
COc1ccc(S(=O)(=O)n2cnc3ccccc32)c(C)c1: -0.43% (inactive)
C=C(C)C#CC(Cc1ccccc1)N(CC1CC1)/C(N)=N/C(=O)OCc1ccccc1 (stereo not given): -0.43% (inactive)
Cc1ccc(NC(=O)Nc2cc(C)nn2-c2ccccc2)cc1: 0.53% (inactive)

Continue with the next compound.
// query Recorded activation for `COc1ccc(-c2cc(C(=O)n3cnc4ccccc43)c3ccccc3n2)cc1` , please?
// result 20.8% (active)
